Values compiled from paper PMC6908968.

# measured_on: EBOV GP ectodomain residues 1-636 (GPec) (Zaire ebolavirus, strain  …, UniProt Q05320)
measured_property: binding result

5.6.c2828 (antibody, V domains shown) VH: EVQLVQSGAEVKKPGESLRISCKGSGYSFTKYWISWVRQMPGKGLEWMGRIDPSDSSTNYSPSFQGHVTISDDKSTSIVYLQWSSLKASDTAMYYCARHSWVQNSAYDPQMISYDHYYGMDVWGQGTTVTVSS VL: ENVLTQSPGTLSLSPGERATLSCRASQSVSSSYLAWYQQKPGQAPRLLIYGASSRATGIPDRFSGSGSGTDFTLTISRLEPGDFAVYYCHQYGSSPLTFGQGTRLEMK	binds
5.6.c3835 (antibody, V domains shown) VH: QIQLVQSGAEVKKPGASVKVSCRASGYTFASSGISWVRQAPGQGLEWMGWINVYNGDTNSAHKLQGRVTMTTDTSTSTAYMELRSLRSDDTAVYYCTRDSFCAGSNSCYLWAGYYYYAMDVWGQGTTVTVSP VL: EIVMTQSPATLSVSPGERATLSCRASQSLSSNLAWYQQKPGQAPRLLIYRASTRATGVPARFSGSGSGTEFTLIISNLQSEDFAVYYCQQFQNWPRTFGQGTKVEIK	binds
5.6.c2526 (antibody, V domains shown) VH: QVQLVESGGGVVQPGGSLRLACAASGFTFSNSGLHWIRQAPGKGLEWMTVISHDGNNKYYADSVKGRFTISRDNSENMLYLQMNSLRPEDTAVYYCARDRIRYSDWGVYYYYNGMDVWGQGTTVTVSS VL: QSVLTQPPSVSAAPGQKVTISCSGSISNIGNHYVSWYKQLPGTAPKVLIYDNNKRPSGIPDRFSGSKSGTSATLGLTGLQTGDEADYFCGTWDSSLSVWVFGGGTKLTVL	binds
